tgt: purified PARP protein (Homo sapiens)
Sequence (P09874 whole entry): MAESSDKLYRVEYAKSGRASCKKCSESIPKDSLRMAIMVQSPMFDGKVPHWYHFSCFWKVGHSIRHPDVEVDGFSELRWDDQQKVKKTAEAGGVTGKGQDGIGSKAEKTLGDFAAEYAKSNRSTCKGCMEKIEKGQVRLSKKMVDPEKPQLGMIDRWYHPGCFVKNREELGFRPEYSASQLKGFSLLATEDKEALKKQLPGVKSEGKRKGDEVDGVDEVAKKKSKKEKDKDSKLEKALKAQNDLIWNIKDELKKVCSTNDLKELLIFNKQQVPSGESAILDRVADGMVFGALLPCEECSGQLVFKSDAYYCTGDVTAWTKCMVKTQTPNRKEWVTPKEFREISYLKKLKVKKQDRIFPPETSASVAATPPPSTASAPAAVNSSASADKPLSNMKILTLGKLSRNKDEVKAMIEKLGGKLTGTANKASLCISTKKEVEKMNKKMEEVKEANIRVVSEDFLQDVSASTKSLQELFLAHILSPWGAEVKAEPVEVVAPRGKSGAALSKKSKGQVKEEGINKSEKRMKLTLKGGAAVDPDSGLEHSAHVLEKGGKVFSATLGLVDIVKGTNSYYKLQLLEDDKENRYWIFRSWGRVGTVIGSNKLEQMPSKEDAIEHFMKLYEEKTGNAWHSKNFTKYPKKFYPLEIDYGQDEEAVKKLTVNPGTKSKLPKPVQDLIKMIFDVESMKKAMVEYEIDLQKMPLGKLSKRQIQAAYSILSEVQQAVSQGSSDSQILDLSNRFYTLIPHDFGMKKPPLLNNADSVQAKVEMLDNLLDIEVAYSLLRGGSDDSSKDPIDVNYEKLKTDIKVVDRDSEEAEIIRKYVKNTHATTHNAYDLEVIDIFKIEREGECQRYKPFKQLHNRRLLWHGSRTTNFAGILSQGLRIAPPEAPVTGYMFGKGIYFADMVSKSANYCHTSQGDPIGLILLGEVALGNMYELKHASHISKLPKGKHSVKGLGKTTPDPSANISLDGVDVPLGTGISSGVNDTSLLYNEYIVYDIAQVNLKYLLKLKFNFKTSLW
experiment: PARP enzyme inhibition assay
Assay type: biochemical
testSettings: [32P]NAD+ incorporation, 500 μM NAD+, 25° C.; two values in a cell = tested twice; read-out: Inhibition Constant Ki
We'd kindly ask you to apply these Ki classes: low range (below 6 nM), mid range (6 nM to below 20 nM), high range (20 nM or more)

compound	tgt	classAssignment
CNC(=O)c1[nH]c2cccc3c2c1CCNC3=O [OOO]	purified PARP protein (Homo sapiens)	mid range
COc1ccccc1-c1[nH]c2cccc3c2c1CCNC3=O [III]	purified PARP protein (Homo sapiens)	high range
CSc1ccccc1-c1[nH]c2cccc3c2c1CCNC3=O [LLL]	purified PARP protein (Homo sapiens)	high range
O=C(O)c1ccc(-c2[nH]c3cccc4c3c2CCNC4=O)cc1 [WWW]	purified PARP protein (Homo sapiens)	high range
O=C1NN=C(CCc2ccccc2)c2c[nH]c3cccc1c23 [Compound 29]	purified PARP protein (Homo sapiens)	mid range

Query block: Record O=C1NCCc2c(-c3cccc(CN4CCCCC4)c3)[nH]c3cccc1c23 [SS] — which class?
Result block: mid range

Query block: Try O=C1NCCc2c(-c3ccncc3)[nH]c3cccc1c23 [JJJ] next.
Result block: low range

Query block: Try N#Cc1[nH]c2cccc3c2c1CCNC3=O [EEE] next.
Result block: mid range

Query block: Try COc1ccc(C2CNC(=O)c3cccc4[nH]cc2c34)cc1 (racemic) [RRRR] next.
Result block: high range

Query block: Try O=C1NCCc2c(-c3cc(C(F)(F)F)cc(C(F)(F)F)c3)[nH]c3cccc1c23 [Compound 33] next.
Result block: high range

Query block: Try O=C1NCCc2c(-c3cccc(CN4CCOCC4)c3)[nH]c3cccc1c23 [SSSS] next.
Result block: mid range

Query block: Try CN(C)Cc1ccc(-c2[nH]c3cccc4c3c2CCNC4=O)cc1F [Compound PPP] next.
Result block: mid range

Query block: Try O=C1NCCc2c(-c3cccc(CN4CCCC4)c3)[nH]c3cccc1c23 [TTTT] next.
Result block: mid range
